B1: ZNF75A (parent)
chain: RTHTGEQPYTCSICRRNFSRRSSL

- Variants of: B1
- protocol.summary: protein stability index of a GFP-peptide fusion (GPS, HEK-293T) (PSI 1-6); higher = more stable;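 also: lentivirally expressed fusions sorted by FACS into six bins by GFP to DsRed ratio, PSI derived from sequencing read proportions per bin multiplied by bin number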
- test.settings: c terminus: a fixed tail appended
Give protein stability index for every item shown.
One number for each entry.

A selection of reference data follows.
{"columns": ["mutant", "protein stability index"],
 "data": [
  ["R21F", 1.95],
  ["F18A", 3.47],
  ["N17F", 2.36],
  ["E6W", 2.02]
]}

Field: protein stability index. Fill in for each record below.
1. H3I
2. S12E
3. N17L
4. F18Y
5. Y9T
6. G5A

[3.08, 2.26, 1.88, 2.61, 2.51, 2.98]

Any idea what its protein stability index is? The variant is R16M 2.43

Data provenance is the supplement of paper PMC10567573.
